Where do these numbers come from? They come from BindingDB's records for patent US12466809.

System name: Cyclin-A2/Cyclin-dependent kinase 2 (Homo sapiens)
Measurement description: Biochemical Assay
Lab note: cut-off is 5 nM. Strictly less in IC50 is true. Exactly 5 nM or more is false.

Some solved entries appear below for comparison.
O=C(CCCCCCCCC#Cc1cccc2c1CN(C1CCC(=O)NC1=O)C2=O)NCCS(=O)(=O)N1CCC(Nc2ncc(Br)c(Nc3cccc4c3OCO4)n2)CC1 (stereo unspecified) [US12466809, Compound 16]	false
NC(=O)c1c(F)cccc1Nc1nc(NC2CCN(S(=O)(=O)CCNC(=O)CCCCCCCCCCc3cccc4c3CN(C3CCC(=O)NC3=O)C4=O)CC2)ncc1Br (stereo unspecified) [US12466809, Compound 15]	false
Cc1ncsc1-c1ccc([C@H](C)NC(=O)[C@@H]2C[C@@H](O)CN2C(=O)[C@@H](NC(=O)CCOCCOCCC(=O)NCCS(=O)(=O)N2CCC(Nc3ncc(Br)c(Nc4cccc(F)c4C(N)=O)n3)CC2)C(C)(C)C)cc1 [US12466809, Compound 11]	false
NC(=O)c1c(F)cccc1Nc1nc(NC2CCN(S(=O)(=O)CCNC(=O)CCCCCCCCC#Cc3cccc4c3CN(C3CCC(=O)NC3=O)C4=O)CC2)ncc1Br (stereo unspecified) [US12466809, Compound 14]	false
NC(=O)c1c(F)cccc1Nc1nc(NC2CCN(S(=O)(=O)CCNC(=O)CCC(=O)NCCCCCNc3cccc4c3C(=O)N(C3CCC(=O)NC3=O)C4=O)CC2)ncc1Br (stereo unspecified) [US12466809, Compound 13]	true

Dear reviewer, please state whether Cc1ncsc1-c1ccc([C@H](C)NC(=O)[C@@H]2C[C@@H](O)CN2C(=O)[C@@H](NC(=O)CCC(=O)NCCS(=O)(=O)N2CCC(Nc3ncc(Br)c(Nc4cccc(F)c4C(N)=O)n3)CC2)C(C)(C)C)cc1 [US12466809, Compound 12] has IC50 strictly beneath 5 nM.
false
